tested_on: T1, human ROR2 (receptor tyrosine kinase-like orphan receptor 2) (human, UniProt Q01974 34-403, limits assumed)
T1 construct: Antigen of the ELISA, SPR and pH titration assays; also called hROR2
assay_remarks: affinity ELISA on human ROR2, pH 7.4
Parameters: unit not given here
Returns rule met if the recorded Affinity ELISA, pH 7.4 is greater than or equal to 0.8, and rule not met otherwise.

* HC-I051E (antibody, V domains shown, CPE single point mutant of parent VH 48.6-HC-WT) VH: EVQLQQSGPELVKPGASVKISCKTSGYTFTEYTMHWMKQSHRKSLEWIGGENTNNGGTGYNQKFKGKATLTVDKSSSTAYMELRSLTSEDSAVYFCARGSLYSYGNSYFDYWGQGTLVTVSS VL: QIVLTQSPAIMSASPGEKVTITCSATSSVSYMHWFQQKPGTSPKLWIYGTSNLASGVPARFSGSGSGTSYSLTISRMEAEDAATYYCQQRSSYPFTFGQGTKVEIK | rule not met
* HC-G050S (antibody, V domains shown, CPE single point mutant of parent VH 48.6-HC-WT) VH: EVQLQQSGPELVKPGASVKISCKTSGYTFTEYTMHWMKQSHRKSLEWIGSINTNNGGTGYNQKFKGKATLTVDKSSSTAYMELRSLTSEDSAVYFCARGSLYSYGNSYFDYWGQGTLVTVSS VL: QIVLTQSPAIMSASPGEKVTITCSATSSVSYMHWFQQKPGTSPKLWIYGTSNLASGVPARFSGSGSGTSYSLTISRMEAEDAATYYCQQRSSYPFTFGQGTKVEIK | rule not met
* HC-A097T (antibody, V domains shown, CPE single point mutant of parent VH 48.6-HC-WT) VH: EVQLQQSGPELVKPGASVKISCKTSGYTFTEYTMHWMKQSHRKSLEWIGGINTNNGGTGYNQKFKGKATLTVDKSSSTAYMELRSLTSEDSAVYFCTRGSLYSYGNSYFDYWGQGTLVTVSS VL: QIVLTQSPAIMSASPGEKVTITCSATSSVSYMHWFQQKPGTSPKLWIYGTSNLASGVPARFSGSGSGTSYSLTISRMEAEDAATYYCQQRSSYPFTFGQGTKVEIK | rule met
* HC-M034Y (antibody, V domains shown, CPE single point mutant of parent VH 48.6-HC-WT) VH: EVQLQQSGPELVKPGASVKISCKTSGYTFTEYTYHWMKQSHRKSLEWIGGINTNNGGTGYNQKFKGKATLTVDKSSSTAYMELRSLTSEDSAVYFCARGSLYSYGNSYFDYWGQGTLVTVSS VL: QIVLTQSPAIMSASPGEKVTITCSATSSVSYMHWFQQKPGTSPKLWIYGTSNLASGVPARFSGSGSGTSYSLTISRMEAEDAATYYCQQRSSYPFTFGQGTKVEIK | rule not met
* HC-M034E (antibody, V domains shown, CPE single point mutant of parent VH 48.6-HC-WT) VH: EVQLQQSGPELVKPGASVKISCKTSGYTFTEYTEHWMKQSHRKSLEWIGGINTNNGGTGYNQKFKGKATLTVDKSSSTAYMELRSLTSEDSAVYFCARGSLYSYGNSYFDYWGQGTLVTVSS VL: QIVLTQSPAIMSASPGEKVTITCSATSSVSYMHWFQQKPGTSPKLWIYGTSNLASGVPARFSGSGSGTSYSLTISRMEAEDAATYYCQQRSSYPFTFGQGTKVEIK | rule not met
